Molecular target: OsMAX1-1400 (Oryza sativa)
Sequence (W5QV10 1-541): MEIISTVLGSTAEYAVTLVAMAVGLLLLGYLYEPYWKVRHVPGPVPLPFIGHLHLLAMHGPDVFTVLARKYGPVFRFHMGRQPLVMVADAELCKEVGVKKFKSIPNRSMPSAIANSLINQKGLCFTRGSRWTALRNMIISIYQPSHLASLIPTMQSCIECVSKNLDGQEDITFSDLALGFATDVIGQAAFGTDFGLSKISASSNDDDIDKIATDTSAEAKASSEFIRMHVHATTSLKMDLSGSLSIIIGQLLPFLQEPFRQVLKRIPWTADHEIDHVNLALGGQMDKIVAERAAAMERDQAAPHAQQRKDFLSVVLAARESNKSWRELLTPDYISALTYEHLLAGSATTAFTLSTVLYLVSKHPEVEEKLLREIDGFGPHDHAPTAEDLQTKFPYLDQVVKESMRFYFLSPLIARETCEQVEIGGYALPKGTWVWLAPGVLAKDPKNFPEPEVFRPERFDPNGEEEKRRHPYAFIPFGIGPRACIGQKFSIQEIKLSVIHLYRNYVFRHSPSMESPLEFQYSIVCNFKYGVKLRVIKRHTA
READOUT TYPE: pIC50
To interpret pIC50, take it as minus log10 of a concentration measured in moles per litre.

Exercise: Suppose we examine the compound O=C(c1ccccc1)C(CCCCOc1ccccc1)n1cncn1 (stereo not shown) [TIS108] ; what pIC50 value has been reported?
Solution: 7.70

---

Molecular target: OsMAX1-900 (Oryza sativa)
Sequence (M9R6D3 1-539): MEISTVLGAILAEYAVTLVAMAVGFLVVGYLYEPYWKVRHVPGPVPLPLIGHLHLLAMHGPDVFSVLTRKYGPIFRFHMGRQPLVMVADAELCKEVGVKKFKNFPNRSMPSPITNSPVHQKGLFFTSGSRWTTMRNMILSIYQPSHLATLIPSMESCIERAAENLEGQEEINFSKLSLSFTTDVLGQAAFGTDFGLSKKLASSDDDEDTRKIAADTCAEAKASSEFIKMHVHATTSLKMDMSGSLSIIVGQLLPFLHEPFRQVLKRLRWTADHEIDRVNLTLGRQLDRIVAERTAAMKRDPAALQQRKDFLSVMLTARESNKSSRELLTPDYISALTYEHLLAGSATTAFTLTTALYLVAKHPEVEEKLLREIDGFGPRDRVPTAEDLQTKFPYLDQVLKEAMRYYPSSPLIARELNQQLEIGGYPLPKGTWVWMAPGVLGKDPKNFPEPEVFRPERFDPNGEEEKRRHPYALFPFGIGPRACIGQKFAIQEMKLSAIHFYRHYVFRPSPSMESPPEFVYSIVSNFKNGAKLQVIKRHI
READOUT TYPE: IC50
Phrase the answer as number then unit, nothing more needed.

Exercise: Recorded IC50 for O=C(c1ccccc1)C(CCCCOc1ccccc1)n1cncn1 (stereo not shown) with OsMAX1-900 (Oryza sativa), please?
Solution: 150 nM
